Assay: pH-solubility of linsitinib free base and selected salts (pH 1.5 to 6.5, overnight equilibration, HPLC)
Type: physicochemical
Settings: aqueous solution, pH 6.5, aqueous buffer, thermodynamic from solid, target pH 6.5; overnight equilibration; read-out: Solubility
Description: The pH-solubility of selected salts (Phosphate 1, L-Malate 1, Esylate 1, and Esylate 2) was evaluated and compared with linsitinib free base. […] If saturation was achieved, the pH of the solution was measured and adjusted to the target pH and additional material was added if needed. […] The final pH of the solution was measured, the solids were filtered and selected samples were analyzed by PXRD. The concentration of linsitinib in the filtrate was quantitated by HPLC (diluted as needed). […]

compound	quantity unit	solubility
C[C@]1(O)C[C@@H](c2nc(-c3ccc4ccc(-c5ccccc5)nc4c3)c3c(N)nccn32)C1.O=P(O)(O)O [Phosphate 1]	µg/mL	1
C[C@]1(O)C[C@@H](c2nc(-c3ccc4ccc(-c5ccccc5)nc4c3)c3c(N)nccn32)C1 [Linsitinib free base, reference compound]	µg/mL	1.2
C[C@]1(O)C[C@@H](c2nc(-c3ccc4ccc(-c5ccccc5)nc4c3)c3c(N)nccn32)C1.O=C(O)C[C@H](O)C(=O)O [L-Malate 1]	µg/mL	16.5
